# Test System: T1, Recombinant MBP-mutCALR Type 1 fusion protein (human)
# T1 construct: custom made at Cepter; also called recombinant mutCALR protein
# Assay Notes: SPR, IgG captured, 1:1 fit, Exp. 2
Label key: Condition met means koff under 0.004 s⁻¹; Condition not met means koff of 0.004 s⁻¹ or more.

Hi there! Is koff for anti-mutCALR antibody clone 66 (antibody, human IgG1, lambda, N297A, V domains shown, human IgG1 N297A variant of clone 6) VH: EVQLVQSGAEVKKPGASVKVSCKVSGYTLTELSMQWVRQAPGKGLEWMGGFDPDAGETMYAEKFQGRLTVTEDTSTDTVYMELRSLTSEDTALYFCATSPGYDFFDYWGQGTLVTVSS VL: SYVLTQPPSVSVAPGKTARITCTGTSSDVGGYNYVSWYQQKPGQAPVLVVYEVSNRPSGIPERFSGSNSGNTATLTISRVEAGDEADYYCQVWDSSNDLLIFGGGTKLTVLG below 0.004 s⁻¹, do you know? Condition not met
